The reported measurements were obtained from patent US20060241173A1.

Molecular target: steroid sulphatase (Homo sapiens, UniProt P08842)
Construct: host or cells: JEG3 choriocarcinoma cells
Sequence (P08842 22-583): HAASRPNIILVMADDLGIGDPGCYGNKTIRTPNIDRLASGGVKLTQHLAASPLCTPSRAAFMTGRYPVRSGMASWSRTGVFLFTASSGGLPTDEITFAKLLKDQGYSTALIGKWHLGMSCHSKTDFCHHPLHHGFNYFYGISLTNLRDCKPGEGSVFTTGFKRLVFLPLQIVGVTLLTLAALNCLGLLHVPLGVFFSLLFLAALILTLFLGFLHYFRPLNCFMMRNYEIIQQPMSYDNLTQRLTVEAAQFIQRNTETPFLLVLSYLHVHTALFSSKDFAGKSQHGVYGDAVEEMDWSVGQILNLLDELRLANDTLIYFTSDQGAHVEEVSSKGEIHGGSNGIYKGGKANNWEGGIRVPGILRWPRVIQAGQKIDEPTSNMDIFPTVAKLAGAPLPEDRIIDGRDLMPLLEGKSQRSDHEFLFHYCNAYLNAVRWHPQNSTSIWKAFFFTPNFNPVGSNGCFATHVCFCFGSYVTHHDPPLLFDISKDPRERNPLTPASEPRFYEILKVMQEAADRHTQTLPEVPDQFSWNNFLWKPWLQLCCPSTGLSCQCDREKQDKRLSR
Assay: Steroid sulphatase activity in intact JEG3 cells
Assay type: cell-based
Details: JEG3 cells; read-out: JEG3 cells IC50 Sulfatase
For each record, write down the corresponding pIC50.
Quick note: pIC50 means taking -log10 of the concentration in moles per liter.

Query string: Provide pIC50, recorded with steroid sulphatase (Homo sapiens, UniProt P08842), of N#Cc1ccc(N(Cc2ccc(F)c(OS(N)(=O)=O)c2)n2cnnc2)cc1
Result string: 6.23

Query string: Provide pIC50, recorded with steroid sulphatase (Homo sapiens, UniProt P08842), of N#Cc1ccc(N(CSc2cccc(OS(N)(=O)=O)c2)n2cnnc2)cc1
Result string: 5.46
